# measurementTarget: T1, full-length human SIRPαV1 (NP_542970.1) on cells (human, UniProt P78324 31-504)
# T1 construct: one molecule for CHO-K1 and Expi-CHO transfectants (NP_542970.1) and for endogenous V1 on U-937 cells and on CD14+ monocytes of V1/V1 donors; also called CHO-hSIRPαV1; αV1 WT
# T1 sequence (P78324 31-504): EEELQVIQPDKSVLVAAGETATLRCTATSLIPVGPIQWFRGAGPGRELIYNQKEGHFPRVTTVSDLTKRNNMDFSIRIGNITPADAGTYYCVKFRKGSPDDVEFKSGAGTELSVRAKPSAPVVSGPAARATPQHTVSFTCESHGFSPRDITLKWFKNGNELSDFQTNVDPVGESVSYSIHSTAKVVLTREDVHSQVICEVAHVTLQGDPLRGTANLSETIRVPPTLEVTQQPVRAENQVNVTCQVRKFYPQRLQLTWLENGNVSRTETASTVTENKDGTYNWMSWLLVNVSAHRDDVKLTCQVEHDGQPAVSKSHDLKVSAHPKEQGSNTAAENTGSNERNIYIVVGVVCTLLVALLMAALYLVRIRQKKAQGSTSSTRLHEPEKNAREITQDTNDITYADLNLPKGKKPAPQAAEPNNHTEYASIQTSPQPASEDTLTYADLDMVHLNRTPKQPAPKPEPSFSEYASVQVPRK
# protocolDetails: flow cytometry, CHO-K1 cells
# reported EC50; entries follow
Dear colleague, please return just the value in nM, with no unit written.

Antibody D (antibody, human IgG1, kappa, L234A L235A, V domains shown) VH: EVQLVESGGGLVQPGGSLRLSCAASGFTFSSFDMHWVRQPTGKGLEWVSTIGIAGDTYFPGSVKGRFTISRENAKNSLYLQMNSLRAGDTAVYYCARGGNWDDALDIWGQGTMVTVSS VL: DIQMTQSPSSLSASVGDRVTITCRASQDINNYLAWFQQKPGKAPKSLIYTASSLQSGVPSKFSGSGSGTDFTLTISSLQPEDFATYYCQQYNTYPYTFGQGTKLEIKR : 0.7
Antibody C (antibody, human IgG1, kappa, L234A L235A, V domains shown) VH: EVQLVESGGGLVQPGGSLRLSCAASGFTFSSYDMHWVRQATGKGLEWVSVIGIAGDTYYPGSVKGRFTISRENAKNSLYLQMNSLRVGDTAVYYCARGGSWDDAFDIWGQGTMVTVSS VL: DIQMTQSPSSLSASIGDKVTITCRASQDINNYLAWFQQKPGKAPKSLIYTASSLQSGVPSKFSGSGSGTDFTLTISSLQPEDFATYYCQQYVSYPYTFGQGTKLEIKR : 1
Antibody B (antibody, human IgG1, kappa, L234A L235A, V domains shown) VH: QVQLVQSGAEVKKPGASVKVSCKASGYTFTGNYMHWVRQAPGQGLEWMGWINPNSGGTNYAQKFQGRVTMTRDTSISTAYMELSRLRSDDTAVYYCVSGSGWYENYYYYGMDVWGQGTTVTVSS VL: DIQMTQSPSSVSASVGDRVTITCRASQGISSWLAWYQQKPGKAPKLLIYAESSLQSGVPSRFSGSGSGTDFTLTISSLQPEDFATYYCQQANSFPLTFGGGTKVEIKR : 12

-- ask Recorded EC50 of Anti-SIRPα antibody KWAR23 (antibody, V domains shown) VH: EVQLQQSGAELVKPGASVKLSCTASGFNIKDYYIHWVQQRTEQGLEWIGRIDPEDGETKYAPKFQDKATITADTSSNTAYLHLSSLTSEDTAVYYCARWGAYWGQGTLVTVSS VL: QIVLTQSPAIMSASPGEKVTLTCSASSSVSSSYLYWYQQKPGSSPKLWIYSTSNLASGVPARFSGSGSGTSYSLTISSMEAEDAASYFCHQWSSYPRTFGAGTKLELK , please.
-- reply 1

// provenance: patent US20230012273A1
